TESTED TARGET: T1, wild-type human Fas receptor extracellular domain fused to human IgG1-Fc domain with a thrombin cleavage site … (human, UniProt P25445 26-173)
T1 construct: human Fas receptor, extracellular domain; A thrombin cleavage site lies between the receptor part and the Fc; also called wild-type hFasRECD-T-Fc; hFasRECD-T-Fc
T1 sequence (looked up): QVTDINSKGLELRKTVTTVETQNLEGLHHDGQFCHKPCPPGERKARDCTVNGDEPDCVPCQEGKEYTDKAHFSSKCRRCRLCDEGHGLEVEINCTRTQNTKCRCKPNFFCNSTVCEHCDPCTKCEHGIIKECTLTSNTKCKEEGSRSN
RUN DESCRIPTION: co-IP; receptor-mediated ligand immunoprecipitation: purified hFasLECD sample with hFasRECD-T-Fc protein and Protein A-agarose beads (immunoprecipitation kit, Roche); precipitate analysed by SDS-PAGE
PARTICULARS: both partners purified
PARAMETER: binding result

• N-glycan trimmed tag-free human Fas ligand extracellular domain (139-281, N184Q, N250Q) (domain or fragment, UniProt P48023 139-281, looked up, N-glycans trimmed with Endo Hf, human Fas ligand (281 aa), residues 139-281 with N184Q and N250Q; Same chain as m1 after Endo Hf digestion; also called N-glycan trimmed tag-free hFasLECD; source: Pichia pastoris GS115 (Mut+), secreted, purified; digested with Endo Hf, Con A-agarose flow-through, Mono S cation-exchange) EKKELRKVAHLTGKSNSRSMPLEWEDTYGIVLLSGVKYKKGGLVIQETGLYFVYSKVYFRGQSCNNLPLSHKVYMRNSKYPQDLVMMEGKMMSYCTTGQMWARSSYLGAVFQLTSADHLYVNVSELSLVNFEESQTFFGLYKL = binds
• NFG1CG4-hFasLECD cross-linked with SUNBRIGHT DE-100MA, peak II of the size-exclusion chromatography (domain or fragment, human, UniProt P48023 139-281, looked up, cysteine in the N-terminal tag conjugated with SUNBRIGHT DE-100MA (linear polyethylene glycol of about 10 kDa with a maleimide group at either end): two subunits cross-linked by one molecule, or one subunit conjugated with one molecule; unreacted cysteines capped with N-Ethylmaleimide, human Fas ligand (281 aa), residues 139-281 with N184Q and N250Q; not shown: FLAG-GlyCys(Gly)4, N-terminal, kept) EKKELRKVAHLTGKSNSRSMPLEWEDTYGIVLLSGVKYKKGGLVIQETGLYFVYSKVYFRGQSCNNLPLSHKVYMRNSKYPQDLVMMEGKMMSYCTTGQMWARSSYLGAVFQLTSADHLYVNVSELSLVNFEESQTFFGLYKL = binds
• N-terminal FLAG-(Gly)5 tagged human Fas ligand extracellular domain (aa 139-281, N184Q, N250Q) (domain or fragment, UniProt P48023 139-281, looked up, human Fas ligand (281 aa), residues 139-281 with N184Q and N250Q; Positive control of the co-immunoprecipitation; also called NFG5-hFasLECD; not shown: FLAG-(Gly)5, N-terminal, kept) EKKELRKVAHLTGKSNSRSMPLEWEDTYGIVLLSGVKYKKGGLVIQETGLYFVYSKVYFRGQSCNNLPLSHKVYMRNSKYPQDLVMMEGKMMSYCTTGQMWARSSYLGAVFQLTSADHLYVNVSELSLVNFEESQTFFGLYKL = binds
